target.desc: MMP-2 (Rattus norvegicus (Rat), UniProt P33436)
Sequence (P33436 110-662): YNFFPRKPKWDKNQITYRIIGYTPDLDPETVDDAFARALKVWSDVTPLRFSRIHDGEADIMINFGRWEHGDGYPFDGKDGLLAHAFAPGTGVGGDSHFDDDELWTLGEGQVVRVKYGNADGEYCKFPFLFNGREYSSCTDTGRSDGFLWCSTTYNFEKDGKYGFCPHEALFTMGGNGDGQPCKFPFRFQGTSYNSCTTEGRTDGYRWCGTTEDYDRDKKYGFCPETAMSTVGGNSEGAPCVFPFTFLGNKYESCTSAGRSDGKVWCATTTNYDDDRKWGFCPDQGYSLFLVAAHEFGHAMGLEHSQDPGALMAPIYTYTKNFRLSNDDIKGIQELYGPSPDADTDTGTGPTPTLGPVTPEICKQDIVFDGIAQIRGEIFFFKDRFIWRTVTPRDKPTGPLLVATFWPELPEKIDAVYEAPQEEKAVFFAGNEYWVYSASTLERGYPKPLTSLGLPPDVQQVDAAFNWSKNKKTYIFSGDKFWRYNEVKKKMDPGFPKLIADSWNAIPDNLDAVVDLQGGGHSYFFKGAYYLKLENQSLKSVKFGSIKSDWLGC
assay.explanation: In vitro zymography assay (gelatin), MMP-2
Format: biochemical
settings: 100 μM; % ± SD; read-out: % inhibition MMP-2 (72 kDa)
Readings of inhibition at 100 µM for the listed compounds
Field format: number, assumed %, no unit text.

Known inhibition at 100 µM results, listed for orientation:
O=C(O)c1c[nH]c(CN(Cc2ccc(F)cc2)Cc2ccc(OCc3ccccc3)cc2)n1
100
O=C(O)c1csc(CN(Cc2ccc(F)cc2)Cc2ccc(OCc3cccnc3)cc2)n1
100

stdin: Recorded inhibition at 100 µM of `O=C(O)c1csc(CN(Cc2ccc(OCc3ccccc3)cc2)Cc2cccc(F)c2)n1` , please.
stdout: 11.1

stdin: Query: inhibition at 100 µM; subject: O=C(O)c1csc(CN(Cc2ccc(F)cc2)Cc2ccc(OCc3ccccc3)cc2)n1 [ALBH-known, reference compound]
stdout: 100

stdin: Suppose we examine the compound `O=C(O)c1csc(CN(Cc2ccc(OCc3ccccc3)cc2)Cc2cccnc2)n1` ; what inhibition at 100 µM value has been reported?
stdout: 100

stdin: Which value of inhibition at 100 µM has been reported for `O=C(O)c1csc(CN(Cc2ccc(OCc3ccncc3)cc2)Cc2cccnc2)n1` in the records?
stdout: 4.78

Where these numbers come from: patent US9487462B2
